# Subject Of Test: T1, VEGF165 (UniProt P15692 27-191)
# T1 chain: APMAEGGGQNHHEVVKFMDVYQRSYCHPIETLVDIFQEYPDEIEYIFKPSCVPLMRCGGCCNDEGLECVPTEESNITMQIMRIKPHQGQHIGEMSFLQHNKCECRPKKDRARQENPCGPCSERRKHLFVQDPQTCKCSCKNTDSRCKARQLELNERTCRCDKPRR
# Method: Biacore; 4000RU VEGF
Endpoint: pKd
Just so you know, pKd here is -log10 of the concentration in molar units; reply with that number alone.

# Binder, pKd
data = [
    ("Four-arm D2 tetramer linked with 4-arm PEG of 20 kDa (receptor, free cysteine coupled to a 4-arm 20 kDa maleimide PEG) RPFVEMYSEIPEIIHMTEGRELVIPCRVTSPNITVTLKKFPLDTLIPDGKRIIWDSRKGFIISNATYKEIGLLTCEATVNGHLYKTNYLTHRQT", 9.77),
    ("Four-arm D2 tetramer linked with 4-arm PEG of 10 kDa (receptor, free cysteine coupled to a 4-arm 10 kDa PEG) RPFVEMYSEIPEIIHMTEGRELVIPCRVTSPNITVTLKKFPLDTLIPDGKRIIWDSRKGFIISNATYKEIGLLTCEATVNGHLYKTNYLTHRQT", 9.46),
]

Please turn your attention to the following entry.
**Q:** I am curious: what pKd value has been reported for disulfide-linked D2 dimer (D2 domain with HPC4 tag and C-terminal cysteine) (receptor, disulfide-linked dimer, presumably via the C-terminal cysteine, Two preparations are kept under one id; One formed spontaneously and was SEC-purified from PEGylation reactions or conditioned medium, without copper oxidation ('D2 HPC4 eluate Pk B', 'D2 Pk B'); also called Cu-oxidized dimer; D2 HPC4 eluate Pk B) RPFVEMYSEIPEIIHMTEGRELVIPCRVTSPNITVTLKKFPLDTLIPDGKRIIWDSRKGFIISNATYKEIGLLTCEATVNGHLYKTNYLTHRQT ?
**A:** 7.94

meta.source: patent US20130324465A1
